System: MS2 coat protein
ASSAY: apparent Kd, MS2 coat protein; higher = weaker binding; RNA-MaP array; FMN 200 µM where present
TEST SETTINGS: designed as: OFF switch for flavin mononucleotide; no ligand
Property: apparent Kd; scope: individual sequences
API: value field is a number in nM; no unit string.

Use these answered entries as a reference point.
CHAIN	EXPERIMENTAL SYSTEM	MEASURED ENDPOINT	VALUE UNIT	VALUE
CUUAUGUGAGGAUAUGGUGUUGAUCACAGGAAAAAGAUUCUCCAGAAGGCACAUGAGGAUCACCCAUGUAGUGA	MS2 coat protein	apparent Kd	nM	145
UACAUCGGAGGAUAUACAUGAGGAUCACCCAUGUGAGUGUAAGGGAGCGUAAGCGGGUGUAGAAGGCCGUCUUU	MS2 coat protein	apparent Kd	nM	58.3
GAAGUUGGUAGGCCCUCGGAACAUGAGGAUCACCCAUGUAAGGAGGAUAUGCCCGGUACCCGCUGGCAGAAGGCCUUAUAAGAA	MS2 coat protein	apparent Kd	nM	11.1

For the next question, use this sequence.
*Q* Look up apparent Kd with MS2 coat protein for this sequence: AACAAACAUGAGGAUCACCCAUGUCAGGAUAUGCACAAACAAACAAACAAACAAGCAAGCAGAAGGGACACAAC
*A* 21.7

====

Tested on: MS2 coat protein
ASSAY: apparent Kd, MS2 coat protein; higher = weaker binding; RNA-MaP array; FMN 200 µM where present
TEST SETTINGS: designed as: OFF switch for flavin mononucleotide; no ligand
# apparent Kd annotations
Write the value in nM as a bare number.

# count of solved cases: 8
CHAIN	EXPERIMENTAL SYSTEM	apparent Kd, nM
UUAUUGUAUGUAGGAUAUGCAUAUUAUUAUUAUGCAGAAGGACAUGAGGAUCACCCAUGUAUAUUAUUAUUAUAUAUUAUAUAU	MS2 coat protein	32.3
AAGAGGUCAGGAUAUACGGAGAGAGGGAGUUGGUGAGGGUAACAUGAGGAUCACCCAUGUAGAAGGGACUAAGA	MS2 coat protein	22.4
GUGUACAGAGGAUAUACAUGAGCAUGGAAACAUGCAUCCUCACAUGAGGAUCACCCAUGUAGAAGGCUGUACAC	MS2 coat protein	26.6
GGUACUCAAAGAGUACGGAGUCGAACAUGAGGAUCACCCAUGUAGGAUAUGCUAUUCUUGAAGUUGCAGAAGGACAUGUGCAGC	MS2 coat protein	10.9
UGAAAGUGAGGAUAUGGUGAGUAGUGCCUGAGCGCUGCUCACCAGAAGGCACAUGAGGAUCACCCAUGUAAAUG	MS2 coat protein	53.4
AAAAACGGAGGAUAUACAAAUUAAGGAAGAAAACACGAAAAACAUGAGGAUCACCCAUGUAGAAGGCCGGAAAA	MS2 coat protein	22.6
CCGGCUGCUGUGAGGAUAUGCCUGUGGGUGCGUGGGUAGAAGGCACAUGAGGAUCACCCAUGUCCUGCGGGCCC	MS2 coat protein	123
UUUCUCUGGGCGUCUUCUUACAUGAGGAUCACCCAUGUUUCAUAGGAUAUGCUAUAGUGUUACAUGCAGAAGGAUGUUUGUUUU	MS2 coat protein	234

*Q* I would be grateful if you could share the reported apparent Kd for UCUUUCGUUGUGAGGAUAUGCCCAAAUAAAAGCGGGCAGAAGGCACAUGAGGAUCACCCAUGUCCUGCGGUUUU .
*A* 22.8

*Q* Could you share which apparent Kd value was measured for GGCAAGUCAGGAUAUGCGAAGUCAGGACACACACUGACGAAGCAGAAGGGACAUGAGGAUCACCCAUGUAAGCC ?
*A* 31.9

====

Test system: MS2 coat protein
ASSAY: apparent Kd, MS2 coat protein; higher = weaker binding; RNA-MaP array; FMN 200 µM where present
TEST SETTINGS: designed as: OFF switch for flavin mononucleotide; no ligand
Listing of entries alongside the reported apparent Kd.
Please give a number only; it is taken to be in nM.

CHAIN	apparent Kd (nM)
CGGAUUAUGUGAGGAUAUAAUCGUUUCCAUUGAUUAGAAGGCACAUGAGGAUCACCCAUGUGGCAUGUAAUGCCAUGUGACGCU	442
GCUGCAUAGUCAGGAUAUGCAACAUAAUAUACAAAAUAGUAUAUUAUGACAUGAGGAUCACCCAUGUAGAAGGGACUGUGCAGU	19.3
CUUAUGUGAGGAUAUGGUGUUGGCCACAGGGAAAAGGUCCUCCAGAAGGCACAUGAGGAUCACCCAUGUAGUGA	165
GGUACUCAAAGAGUACUUGGUCGAACAUGAGGAUCACCCAUGUAGGAUAUGCAAAGCAAGAAGUAGCAGAAGGACAUGUGCAGC	13.5
GUGGUACAUGAGGAUCACCCAUGUUAGGAUAUCGCGUGAGGUUUUACUUCCGCACGCGCGAGAAGGGACGUCUU	36.2

*Q* Which apparent Kd value belongs to AACAUGUGAGGAUAUGAGAACAGCCGGGAGGGCUGUGUAAAUUAGAAGGCACAUGAGGAUCACCCAUGUGACCU ?
*A* 18.2

*Q* Recorded apparent Kd for GGUGAAGCAGGAUAUGUAUCGAUAUACAUGAGGAUCACCCAUGUCAUGUUCGAAUCGCAUAUAGAAGGGCUUCACC , please?
*A* 13.4

====

System: MS2 coat protein
ASSAY: apparent Kd, MS2 coat protein; higher = weaker binding; RNA-MaP array; FMN 200 µM where present
TEST SETTINGS: ligand present: flavin mononucleotide; designed as: ON switch for flavin mononucleotide
Entries and their apparent Kd
Value and unit, in that order.

*Q* I'd like to know its apparent Kd. The sequence in question is UUGCCUCAGAACAUGAGGAUCACCCAUGUGCUGCGGGCAACGUAGGAUAUGAUGGUAUGAUACCGUCAGAAGGAUGAUGGUACC
*A* 5.32 nM

*Q* Using the record for GGAGACCUCACAGGAUAUGCUGGACUUUGUCCAGCAGAAGGGUGGACAUGAGGAUCACCCAUGUGGUCUUCCAAAAUAUUUAAU , report its apparent Kd.
*A* 139 nM

*Q* What value of apparent Kd has been reported for the following sequence? GUAGCAUACCGAGGAUAUUCCGGGCAUAAAUAAACAUGAGGAUCACCCAUGUGGCGAAAGCCUAGGGAGAAGGCGGAAUGCUAC
*A* 13.6 nM

*Q* Quick check: apparent Kd of GCUAUCGAACAGAAGGGACCGCGGCCGUGGCGGUCAGGAUAUGUAUGCAGUAGUGCCUACAUGAGGAUCACCCAUGUCCGCCGC ?
*A* 218 nM

*Q* Which value of apparent Kd has been reported for AGGCCGCUACGCCGGCUUCACGCACAGGAUAUGCAGUUACAUGAGGAUCACCCAUGUGGCCAUGUGCAGAAGGGUGGUUCGUGA in the records?
*A* 5.44 nM

*Q* Could you tell me which apparent Kd is on file for GGGUACAUCGGAGGAUAUCAUGUAAAUACAUGAGGAUCACCCAUGUCGAUGGAGACAGCGGAGAUUGAGAAGGCCGAUGUACCG ?
*A* 190 nM

*Q* Quick check: apparent Kd of GGAGACCUCACAGGAUAUGCUGGACUUUGUCCAGCAGAAGGGUGAAAACAUGAGGAUCACCCAUGUAUGGUCUCCAAAUUUAAA ?
*A* 13.2 nM

====

System: MS2 coat protein
ASSAY: apparent Kd, MS2 coat protein; higher = weaker binding; RNA-MaP array; FMN 200 µM where present
TEST SETTINGS: ligand present: flavin mononucleotide; designed as: OFF switch for flavin mononucleotide
MEASURED ENDPOINT: apparent Kd (nM)
Number only, in nM; omit the unit.

Some sequences with known apparent Kd results, for comparison:
CHAIN	EXPERIMENTAL SYSTEM	VALUE UNIT	apparent Kd
CUAGUACAUGAGGAUCACCCAUGUCAGGAUAUUGGAUAUGCCUUGGAAAACAUGUUUACAAGAAGGGACUAUAG	MS2 coat protein	nM	19.6
UGUCGGAGCAGAGGAUAUUACAUGAGGAUCACCCAUGUAUGAACCUAUAGCUGGAAACAGCAAUGUAAGAAGGCUGCUCCGACA	MS2 coat protein	nM	338

*Q* If you can, please state the reported apparent Kd value of ACAAUAGUAUCACAUGUAUUACAUGAGGAUCACCCAUGUAACUAGGAUAUGUUUUAAAAUUUACAACAGAAGGAGUUAUUAUGU .
*A* 14.6

*Q* Suppose we examine the sequence GACUCGAAUGUAGGAUAUGCUGAGGAUAACUCAGCAGAAGGACAUGAGGAUCACCCAUGUAAAUGAGUGAAUAAUAAACGAGUC ; what apparent Kd value has been reported?
*A* 129

*Q* Look up apparent Kd: GAUACGUCAGGAUAUCUGAUGUCUAACUUCGGUUAGACAUCAGAGAAGGGACAUGAGGAUCACCCAUGUAUCAG
*A* 61.1

*Q* Need apparent Kd, item UUAAUUAACAAGAAGGCUUACAUGAGGAUCACCCAUGUUGUACAUGGAUAAAGAGGAUAUUGCUAAUAAUUAUUUUUCUUAAUU
*A* 57.5

*Q* Need apparent Kd of UCCGCUCGAGGAUAUACAUGAGGAUCACCCAUGUUUCCCUGUUGCUUGGCCUCAGGAUGUAGAAGGCGACGCUA , thanks.
*A* 19.8

// provenance: the EternaBench riboswitch data
